Target: purified recombinantly expressed human SSAO (Homo sapiens)
Sequence (Q16853 1-763): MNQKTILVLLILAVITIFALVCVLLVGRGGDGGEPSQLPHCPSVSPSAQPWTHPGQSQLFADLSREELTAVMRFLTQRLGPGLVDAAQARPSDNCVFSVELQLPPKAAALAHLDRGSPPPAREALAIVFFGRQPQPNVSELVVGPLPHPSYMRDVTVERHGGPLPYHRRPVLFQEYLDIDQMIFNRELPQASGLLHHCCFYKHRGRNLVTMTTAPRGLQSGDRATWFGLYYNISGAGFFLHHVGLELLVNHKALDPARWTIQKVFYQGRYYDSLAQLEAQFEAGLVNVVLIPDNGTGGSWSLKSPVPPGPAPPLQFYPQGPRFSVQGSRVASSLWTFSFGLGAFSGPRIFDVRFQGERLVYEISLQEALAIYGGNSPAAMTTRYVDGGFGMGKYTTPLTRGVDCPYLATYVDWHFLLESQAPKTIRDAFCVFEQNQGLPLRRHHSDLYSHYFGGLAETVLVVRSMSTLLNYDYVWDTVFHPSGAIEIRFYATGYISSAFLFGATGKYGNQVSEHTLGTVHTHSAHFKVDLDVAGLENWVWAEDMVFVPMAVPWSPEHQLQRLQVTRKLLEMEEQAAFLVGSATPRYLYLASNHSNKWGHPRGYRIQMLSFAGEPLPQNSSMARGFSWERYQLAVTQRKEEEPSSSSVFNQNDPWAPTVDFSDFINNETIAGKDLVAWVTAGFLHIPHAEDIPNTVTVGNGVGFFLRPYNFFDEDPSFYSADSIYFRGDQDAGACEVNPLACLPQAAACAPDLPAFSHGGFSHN
Assay: SSAO enzyme inhibition assay (benzylamine substrate; hydrogen peroxide/HRP-coupled or 14C aldehyde detection)
Conditions: SSAO inhibitory activity, RT
attribute_measured: IC50

Some solved entries appear below for comparison.
> print(dat)
                                   molecule        measured
1  CC(=O)NC1CCN(c2ccc(-c3nc4ccncc4n3-c3ccc(Cl)cc3)cn2)CC1         < 50 nM
2  Clc1ccc(-n2c(-c3ccc(N4CCNCC4)nc3)nc3ccncc32)cc1         < 50 nM
3  Clc1ccc(-n2c(-c3ccc(N4CCOCC4)nc3)nc3ccncc32)cc1         < 50 nM
4  Cc1nc(N2CCOCC2)ncc1-c1nc2ccncc2n1-c1ccc(Cl)cc1F         < 50 nM
5     Clc1ccc(-n2c(-c3ccncc3)cc3ccncc32)cc1  200 to 1200 nM

Task: Give its IC50 value. Item: `Cc1ccc(-n2c(-c3ccc(N4CCOCC4)nc3)nc3ccncc32)nc1`
Output: < 50 nM

Task: Give its IC50 value. Item: `CN1CCN(Cc2ccc(-c3nc4ccncc4n3-c3ccc(Cl)cc3)cc2)CC1`
Output: < 50 nM

----------
biological target: purified recombinantly expressed human SSAO (Homo sapiens); assay: SSAO enzyme inhibition assay (benzylamine substrate; hydrogen peroxide/HRP-coupled or 14C aldehyde detection); settings: SSAO inhibitory activity, RT
pIC50: −log10 of the molar value. Counter-ions that a name gives are not always drawn.
Examples of compounds with documented pIC50 follow.

Some solved entries appear below for comparison.
> print(dat)
                                   compound  attribute.measured      measured
1  Fc1ccc(-n2c(-c3ccc(OC4CCOC4)nc3)nc3ccncc32)cc1 (stereo not drawn)               pIC50        > 7.30
2  Clc1ccc(-n2c(-c3cnc(N4CCNCC4)o3)nc3ccncc32)cc1 [Example 18, dihydrochloride]               pIC50  6.70 to 7.30
3  Brc1ccc(-n2c(-c3cnc(N4CCOCC4)nc3)nc3ccncc32)cc1               pIC50  6.70 to 7.30

Task: Give its pIC50 value. Item: `Cn1ccc(-c2cc3ccncc3n2-c2ccc(Cl)cc2)cc1=O`
Output: > 7.30

Task: Give its pIC50 value. Item: `Clc1ccc(-n2c(-c3ccc(Cn4ccnc4)cc3)nc3ccncc32)cc1`
Output: > 7.30

Task: Give its pIC50 value. Item: `Fc1ccc(-n2c(-c3cnc(N4CCOCC4)nc3)nc3ccncc32)c(Cl)c1`
Output: 5.92 to 6.70

Task: Give its pIC50 value. Item: `CC(=O)N1CCN(c2ccc(-c3nc4ccncc4n3-c3ccc(F)cc3)cn2)CC1`
Output: > 7.30

----------
Examples of compounds with documented pIC50 follow.
Target: purified recombinantly expressed human SSAO (Homo sapiens, UniProt Q16853)
Sequence (Q16853 1-763): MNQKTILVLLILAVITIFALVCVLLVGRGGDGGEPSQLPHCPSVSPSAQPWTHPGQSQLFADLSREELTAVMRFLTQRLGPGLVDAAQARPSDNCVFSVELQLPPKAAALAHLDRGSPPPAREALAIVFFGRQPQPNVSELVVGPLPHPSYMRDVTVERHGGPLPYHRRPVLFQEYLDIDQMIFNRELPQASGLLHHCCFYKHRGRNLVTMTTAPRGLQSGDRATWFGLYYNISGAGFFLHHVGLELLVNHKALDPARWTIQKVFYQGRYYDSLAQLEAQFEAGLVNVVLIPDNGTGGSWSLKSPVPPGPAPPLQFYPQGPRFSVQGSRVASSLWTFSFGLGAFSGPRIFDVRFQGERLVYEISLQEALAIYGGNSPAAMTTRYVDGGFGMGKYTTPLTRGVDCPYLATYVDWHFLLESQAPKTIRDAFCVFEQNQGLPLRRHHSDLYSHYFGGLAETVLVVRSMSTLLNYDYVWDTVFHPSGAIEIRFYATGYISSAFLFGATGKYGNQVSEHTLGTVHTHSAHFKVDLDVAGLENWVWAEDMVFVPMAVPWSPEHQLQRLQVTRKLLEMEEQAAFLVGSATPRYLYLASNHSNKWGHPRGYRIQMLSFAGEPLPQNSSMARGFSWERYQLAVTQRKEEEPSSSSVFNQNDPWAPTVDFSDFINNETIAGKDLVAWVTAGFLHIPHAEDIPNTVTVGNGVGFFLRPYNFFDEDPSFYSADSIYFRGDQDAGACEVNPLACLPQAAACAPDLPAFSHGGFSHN
Assay: SSAO enzyme inhibition assay (benzylamine substrate; hydrogen peroxide/HRP-coupled or 14C aldehyde detection)
Settings: SSAO inhibitory activity, RT
Procedure: All primary assays were performed at RT. with purified recombinantly expressed human SSAO. Enzyme was prepared essentially as described in Öhman et al. (Protein Expression and Purification 46 (2006) 321-331). […] SSAO activity was assayed using 14C-labeled benzylamine and analysed by measuring radioactive benzaldehyde. […] Phase separation occurred instantly and activity was read in a Topcount scintillation counter (Perkin-Elmer). […] Data was analysed as above.
pIC50: −log10 of the molar value.

Task: Give its pIC50 value. Item: `Cc1ccc(-n2c(-c3cnc(N4C[C@@H](C)O[C@@H](C)C4)nc3)nc3ccncc32)cn1`
Output: > 7.30

Task: Give its pIC50 value. Item: `Cn1c(-c2cc3ccncc3n2-c2ccc(Cl)cc2)cccc1=O`
Output: > 7.30

Task: Give its pIC50 value. Item: `Clc1ccc(-n2c(-c3cnc[nH]3)nc3ccncc32)cc1`
Output: 5.92 to 6.70

Task: Give its pIC50 value. Item: `Clc1ccc(-n2c(-c3ccc(CN4CCOCC4)nc3)cc3ccncc32)cc1`
Output: > 7.30

Task: Give its pIC50 value. Item: `Clc1ccc(-n2c(-c3cncc(Cl)c3)cc3ccncc32)cc1`
Output: 6.70 to 7.30

----------
Target: purified recombinantly expressed human SSAO (Homo sapiens)
Sequence (Q16853 1-763): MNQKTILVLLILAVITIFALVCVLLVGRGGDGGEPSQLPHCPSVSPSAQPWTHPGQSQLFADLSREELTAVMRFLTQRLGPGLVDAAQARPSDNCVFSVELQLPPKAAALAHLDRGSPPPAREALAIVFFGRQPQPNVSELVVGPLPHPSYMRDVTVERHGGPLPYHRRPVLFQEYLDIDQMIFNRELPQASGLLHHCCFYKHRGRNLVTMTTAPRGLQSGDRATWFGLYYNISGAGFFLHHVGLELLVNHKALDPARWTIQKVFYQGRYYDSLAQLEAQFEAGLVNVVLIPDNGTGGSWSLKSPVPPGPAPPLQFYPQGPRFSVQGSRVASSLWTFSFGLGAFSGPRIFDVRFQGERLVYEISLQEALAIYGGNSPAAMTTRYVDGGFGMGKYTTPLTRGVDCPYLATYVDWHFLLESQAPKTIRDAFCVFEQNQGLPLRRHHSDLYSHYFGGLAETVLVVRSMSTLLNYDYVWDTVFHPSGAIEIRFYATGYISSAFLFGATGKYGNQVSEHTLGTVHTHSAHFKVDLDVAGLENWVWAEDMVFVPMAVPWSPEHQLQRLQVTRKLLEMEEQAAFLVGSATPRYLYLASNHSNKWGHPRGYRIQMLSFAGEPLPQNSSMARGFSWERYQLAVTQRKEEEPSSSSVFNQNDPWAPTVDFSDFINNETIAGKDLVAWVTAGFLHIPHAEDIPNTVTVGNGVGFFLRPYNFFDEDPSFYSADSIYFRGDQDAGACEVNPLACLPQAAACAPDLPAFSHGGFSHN
Assay: SSAO enzyme inhibition assay (benzylamine substrate; hydrogen peroxide/HRP-coupled or 14C aldehyde detection)
Settings: SSAO inhibitory activity, RT
pIC50: −log10 of the molar value.
attribute_measured: pIC50

> print(dat)
                                   molecule                           subject.of.test      measured
1  CCn1ccc(-c2cc3ccncc3n2-c2ccc(Cl)cc2)cc1=O  purified recombinantly expressed human SSAO (Homo sapiens)  6.70 to 7.30
2  Fc1cc(Cl)ccc1-n1c(-c2cnc(N3CCCC3)nc2)nc2ccncc21  purified recombinantly expressed human SSAO (Homo sapiens)        > 7.30
3  Cc1cc(N2CCOCC2)ncc1-c1cc2ccncc2n1-c1ccc(Cl)cc1  purified recombinantly expressed human SSAO (Homo sapiens)        > 7.30

Task: Give its pIC50 value. Item: `Cc1cc(N2CCOCC2)ncc1-c1nc2ccncc2n1-c1ccc(Cl)cc1F`
Output: > 7.30

Task: Give its pIC50 value. Item: `Fc1ccc(-n2c(-c3cnc(NC4CC4)nc3)nc3ccncc32)cc1`
Output: 6.70 to 7.30

Task: Give its pIC50 value. Item: `O=C(c1ccc(-c2nc3ccncc3n2-c2ccc(Cl)cc2)cn1)N1CCOCC1`
Output: 5.92 to 6.70
